- assay: Hydrolytic stability in buffer solutions of various pH (HPLC)
- Assay type: physicochemical
- testSettings: phosphate-buffered solution, acidic solution (pH 4), 40° C., read-out: half life value (T1/2), hydrolytic stability (converted)
experimentalReadout: half-life at 1 mg/mL

IN: Fill in half-life at 1 mg/mL for record Nc1nc2c(ncn2COC(CO)COC(=O)C2(N)CC2)c(=O)[nH]1 (stereo not shown)
OUT: > 12.5 days

###

- assay: Hydrolytic stability in buffer solutions of various pH (HPLC)
- Assay type: physicochemical
- testSettings: pH 7.4, 40° C., phosphate-buffered solution, read-out: half life value (T1/2), hydrolytic stability (converted)
Please note: half-life at 1 mg/mL exactly at 60 h is -1. Only values below 60 h get 1.

Some entries whose results are on file:
{"compound": "Nc1nc2c(ncn2COC(CO)COC(=O)C2(N)CC2c2ccccc2)c(=O)[nH]1 (centres unmarked)", "classification": -1}
{"compound": "Nc1nc2c(ncn2COC(CO)COC(=O)C2(N)CC2c2ccc(Br)cc2)c(=O)[nH]1 (centres unmarked)", "classification": -1}
{"compound": "Nc1nc2c(ncn2COC(CO)COC(=O)C2(N)CC2c2ccccn2)c(=O)[nH]1 (centres unmarked)", "classification": 1}

IN: Please determine if CC1CC1(N)C(=O)OCC(CO)OCn1cnc2c(=O)[nH]c(N)nc21 (centres unmarked) is below 60 h in terms of half-life at 1 mg/mL.
OUT: 1

IN: hey, is half-life at 1 mg/mL for Nc1nc2c(ncn2COC(CO)COC(=O)C2(N)CC2)c(=O)[nH]1 (centres unmarked) lower than 60 h or not?
OUT: 1

IN: # TODO verify half-life at 1 mg/mL < 60 h strictly for this compound: CC1(C)CC1(N)C(=O)OCC(CO)OCn1cnc2c(=O)[nH]c(N)nc21 (centres unmarked)
OUT: -1

IN: Hello, is half-life at 1 mg/mL of the following compound strictly smaller than 60 h? Nc1nc2c(ncn2COC(CO)COC(=O)C2(N)CC2c2ccco2)c(=O)[nH]1 (centres unmarked)
OUT: 1

IN: Decide: half-life at 1 mg/mL of Nc1nc2c(ncn2COC(CO)COC(=O)C2(N)CC2C(F)(F)F)c(=O)[nH]1 (centres unmarked) strictly below 60 h?
OUT: 1
